Source: a melting point compilation (Tetko et al.; mined from patent text by program, amines drawn as free bases though some values may be those of a salt)

Each item that follows carries a reported melting point.

These recorded examples may help you get a feel for the data.
{"COMPOUND": "Cc1c(Br)ccc(O)c1C(=O)O", "melting point": "163 to 165 °C"}
{"COMPOUND": "O=c1oc2c(O)c(O)ccc2c2ccccc12", "melting point": "254 to 256 °C"}
{"COMPOUND": "CC[C@H](C)C(OCc1ccccc1)[C@H]1[C@H]([N+](=O)[O-])[C@@H](c2cccs2)N[C@@H]1C(=O)NCCC(=O)O (some centres undefined)", "melting point": "79 to 80 °C"}

--- query ---
q: Kindly indicate its recorded melting point. Item: CSC1CC(=O)N1Cc1ccccc1 (centres undefined)
a: 26 to 28 °C

----------
Each item that follows carries a reported melting point.

{"COMPOUND": "CCCc1nc(C(=O)CC)c(C#N)n1C(c1ccccc1)(c1ccccc1)c1ccccc1", "MEASUREMENT TYPE": "melting point", "RECORDED VALUE": "96 °C"}
{"COMPOUND": "Nc1cccc(C(=O)Nc2ccc(-c3ccc(C(=O)N4CCN5CCC4CC5)o3)cc2)c1", "MEASUREMENT TYPE": "melting point", "RECORDED VALUE": "249 to 252 °C"}
{"COMPOUND": "Cc1ccc(CNC(=O)c2nc(N3CCOCC3)n(C)c(=O)c2O)cc1F", "MEASUREMENT TYPE": "melting point", "RECORDED VALUE": "166 to 167 °C"}
{"COMPOUND": "O=C(Nc1ccc(-n2nc(C(F)(F)F)cc2C(F)(F)F)cc1)c1cncc(Br)c1", "MEASUREMENT TYPE": "melting point", "RECORDED VALUE": "155 to 157 °C"}

q: Kindly indicate its recorded melting point. Item: `COC(=O)c1sc2c(c1C)c1ccccc1n2C`
a: 166 to 167 °C

q: Kindly indicate its recorded melting point. Item: CC12Nc3ccccc3N1C(=O)c1ccccc12 (centres undefined)
a: 182 °C

q: Kindly indicate its recorded melting point. Item: `CC(C)N(Cc1cccs1)C(=O)C12CC3CC(CC(C3)C1)C2`
a: 156 to 158 °C

q: Kindly indicate its recorded melting point. Item: Cc1nc2ccccc2c(NCC(C)O)c1Br (centres undefined)
a: 147 to 149 °C

q: Kindly indicate its recorded melting point. Item: Cc1cc(C)c2nc(COc3ccc(CC4SC(=O)N(C(c5ccccc5)(c5ccccc5)c5ccccc5)C4=O)cc3)n(C)c2n1 (centres undefined)
a: 96 to 99 °C

q: Kindly indicate its recorded melting point. Item: `CC(=O)OCN=C(O)c1cc(C(O)=NCOC(C)=O)c(C(=O)O)cc1C(=O)O`
a: 237 to 238 °C

q: Kindly indicate its recorded melting point. Item: `Cc1onc(C(F)(F)F)c1CS(=O)(=O)C1=NOC(C)(C)C1`
a: 135 to 136 °C

q: Kindly indicate its recorded melting point. Item: `COC(=O)CCc1conc1-c1ccc(F)c(Cl)c1`
a: 39 to 40 °C

q: Kindly indicate its recorded melting point. Item: `COc1ccc(-c2cc3cc(Cl)cc(Cl)c3o2)cc1`
a: 172 to 174 °C

q: Kindly indicate its recorded melting point. Item: `CC(C)(CO)Oc1ccc(COc2ccc(Cl)cc2)cc1`
a: 67 to 70 °C
